Assay: Tested for its activity to inhibit the binding of [125I]gastrin to gastric glands (gastrin) in guinea pig
pIC50: −log10 of the molar value.
readout_name: pIC50

structure_as_smiles=Cn1c(C(=O)Nc2cc3c4ccccc4nc-3c[nH]2)cc2ccccc21 result="< 4.00"

----------
Quick reference: pIC50 of the listed items.
Experiment: Tested for its activity to inhibit the binding of [125I]CCK-33 to Cholecystokinin type B receptor in guinea pig brain
pIC50: −log10 of the molar value.
readout_name: pIC50

compound=O=C(Cc1ccccc1)Nc1cc2c3ccccc3nc-2c[nH]1 readout_name=pIC50 result_operator== numeric_value=4.47
compound=Cn1c(C(=O)Nc2cc3c4ccccc4nc-3c[nH]2)cc2ccccc21 readout_name=pIC50 result_operator=< numeric_value=4.00
compound="O=C(Nc1cc2c3ccccc3nc-2c[nH]1)c1ccccc1 [N-(9H-beta-Carbolin-3-yl)-benzamide]" readout_name=pIC50 result_operator== numeric_value=3.65

----------
Assay: Tested for its activity to inhibit the binding of [125I]gastrin to gastric glands (gastrin) in guinea pig
pIC50: −log10 of the molar value.
Quick reference: pIC50 of the listed items.
readout_name: pIC50

molecule="O=C(Nc1cc2c3ccccc3nc-2c[nH]1)c1ccccc1 [N-(9H-beta-Carbolin-3-yl)-benzamide]" readout_name=pIC50 result_operator=< numeric_value=4.00
molecule=O=C(Cc1ccccc1)Nc1cc2c3ccccc3nc-2c[nH]1 readout_name=pIC50 result_operator== numeric_value=4.85
